These data points were gathered from paper doi:10.1101/2021.04.29.441652v1.

# STUDY_SYSTEM: human σ2 receptor (TMEM97) (Homo sapiens)
# Sequence (Q5BJF2 whole entry): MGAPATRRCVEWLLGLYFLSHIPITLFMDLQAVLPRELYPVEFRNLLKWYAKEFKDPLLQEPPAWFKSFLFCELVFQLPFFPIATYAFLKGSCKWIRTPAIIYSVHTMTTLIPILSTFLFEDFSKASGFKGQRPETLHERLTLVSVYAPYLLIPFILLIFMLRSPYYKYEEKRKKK
# ASSAY_NOTES: biochemical
# Format: Expi293 membranes
# DETAILS: read-out: % of control remaining
PROPERTY_NAME: remaining activity at 1 µM (%)
Give bare numbers, in %.

[
  {
    "MOLECULE": "O=C(OC[C@@H]1CCN1Cc1ccccc1)c1nccc2occc12",
    "remaining activity at 1 µM (%)": 117
  },
  {
    "MOLECULE": "O=C([C@H](O)c1cccc([N+](=O)[O-])c1)N1CC[C@H](N2CCCC2)C1",
    "remaining activity at 1 µM (%)": 104
  },
  {
    "MOLECULE": "O=C(Nc1cccc(OC(F)(F)F)c1)C(=O)N1CCC[C@@H](N2CCCC2)CC1",
    "remaining activity at 1 µM (%)": 17.7
  }
]

Field: remaining activity at 1 µM. Fill in for each record below.
1. O=C(NCCc1ccc(F)c(Br)c1)[C@H]1C[C@H](F)CN1
2. C1CCC([C@@H]2CCN(CCC3CCOCC3)C2)CC1
3. Cc1cc([N+](=O)[O-])ccc1NC(=O)CN1CCC[C@@H]([C@@H]2CCCCO2)C1
4. C=C(C)CN/C(N)=N/[C@H]1C[C@H](c2cccc(F)c2)C1
5. CCc1cc(NC(=O)[C@@H]2CC[C@H](C3CC3)N2)ccc1C
6. CC(C)[C@H](C(=O)NC[C@H](C[C@@H](C)O)c1ccccc1)N1CCCCC1
7. O=C(C1CC2(CCC2)C1)N1CCCN(C[C@@H](O)c2ccccc2)CC1

[A]
1: 106; 2: 6.4; 3: 96.1; 4: 6.4; 5: 80.8; 6: 108; 7: 48.4
